testTarget: UniProt:Q72547
methodDescription: Inhibition of HIV1 RT after 1 hr by ELISA relative to control
Design: concentration or dose not given beside the values
measurementSetup: concentration not given here
quantityName: inhibition (%)
Report only the number, with the unit % understood.

Example entries and their recorded answers appear below.
# chemicalString, quantityName, assayValue
rows = [
    ("Cc1ccc2c(c1)/C(=N/n1cnnc1)C(=O)N2CN(C)C", "inhibition", 69.1),
    ("Cc1ccc2c(c1)/C(=N/n1cnnc1)C(=O)N2CN1CCCCC1", "inhibition", 89),
    ("Cc1ccc2c(c1)/C(=N/n1cnnc1)C(=O)N2CN1CCOCC1", "inhibition", 84.1),
]

Field inhibition (system: UniProt:Q72547) for entry Cc1ccc2c(c1)/C(=N/n1cnnc1)C(=O)N2CN1CCNCC1 = 90.9

Tested on UniProt:Q72547, the item CNc1ccc(CN2C(=O)/C(=N\n3cnnc3)c3cc(C)ccc32)cc1 showed inhibition equal to 0
